target: furin, P09958; test: furin cleavage Z-score vs untreated control; higher = more cleavage, active = 3.5 or more, inactive = 1 or less, 8 variable residues between constant flanks; conditions: 7.5 min;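 note: purified furin at 1:10 enzyme:substrate in 50 mM HEPES pH 7.5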
Sequence (P09958 whole entry): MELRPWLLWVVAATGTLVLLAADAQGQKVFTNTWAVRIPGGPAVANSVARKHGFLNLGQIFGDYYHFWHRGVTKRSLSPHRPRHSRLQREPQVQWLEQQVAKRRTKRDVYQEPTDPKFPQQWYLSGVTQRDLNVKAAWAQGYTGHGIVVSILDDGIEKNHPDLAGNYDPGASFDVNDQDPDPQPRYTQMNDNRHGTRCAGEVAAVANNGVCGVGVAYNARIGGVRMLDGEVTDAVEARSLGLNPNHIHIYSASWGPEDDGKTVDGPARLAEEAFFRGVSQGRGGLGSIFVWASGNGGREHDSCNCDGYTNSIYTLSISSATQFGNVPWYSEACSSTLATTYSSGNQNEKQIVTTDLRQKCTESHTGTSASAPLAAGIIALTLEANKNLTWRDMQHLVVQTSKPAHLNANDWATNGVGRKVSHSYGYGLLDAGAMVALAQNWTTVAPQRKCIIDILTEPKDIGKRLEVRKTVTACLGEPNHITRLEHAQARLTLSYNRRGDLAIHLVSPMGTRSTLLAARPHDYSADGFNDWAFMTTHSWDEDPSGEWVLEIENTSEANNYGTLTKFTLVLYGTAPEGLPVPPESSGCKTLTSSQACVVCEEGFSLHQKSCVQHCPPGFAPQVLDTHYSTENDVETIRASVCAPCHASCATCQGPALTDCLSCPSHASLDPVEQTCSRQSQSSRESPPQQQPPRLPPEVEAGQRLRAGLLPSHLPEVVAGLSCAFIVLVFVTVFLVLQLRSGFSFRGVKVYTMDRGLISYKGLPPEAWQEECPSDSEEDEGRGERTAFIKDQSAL
Some of the results follow. How many sequences the whole screen found active is unknown.

Biosequence: CARLKRSPDKAGNASASA [FS-2277]
furin cleavage Z-score: 9.81
//
Biosequence: CASTPCSAHQAGNASASA [HC2582]
furin cleavage Z-score: -0.092
//
Biosequence: CARYIRSERSAGNASASA [FS-1611]
furin cleavage Z-score: 6.49
//
Biosequence: CATRKTSERSAGNASASA [HC185]
furin cleavage Z-score: 0.0798
//
Biosequence: CAVEGERGFFAGNASASA [EK8]
furin cleavage Z-score: -1.92
//
Biosequence: CAMTHRWNRFAGNASASA [FS-1545]
furin cleavage Z-score: -0.191
//
Biosequence: CADSSRPARFAGNASASA [FS-987]
furin cleavage Z-score: 0.601
